# studyTarget: HLA-A*02:01
# assayProtocol: IEDB peptide-MHC binding, purified MHC/direct/fluorescence; filed as Kd, often an IC50 or EC50 that approximates it; bounds were set here for any values at or beyond the usual limits of such assays
# conditionSummary: source organism: Influenza A virus (A/chicken/Hubei/wk/1997(H5N1))
measurementType: Kd

Lab note: need Kd with HLA-A*02:01 for entry "MKWMMAMKY" , please look it up.
≥ 20 µM

###

# studyTarget: HLA-A*02:16
# assayProtocol: IEDB peptide-MHC binding, purified MHC/competitive/fluorescence; filed as Kd, often an IC50 or EC50 that approximates it; bounds were set here for any values at or beyond the usual limits of such assays
# conditionSummary: source organism: Bacillus cereus ATCC 4342
measurementType: Kd (µM)
// return numeric value only (unit: µM, not printed)

// returns reported Kd for input "GLFWGGIWY"
5.63

###

# studyTarget: HLA-B*07:02
# assayProtocol: IEDB peptide-MHC binding, purified MHC/competitive/radioactivity; filed as Kd, often an IC50 or EC50 that approximates it; bounds were set here for any values at or beyond the usual limits of such assays
# conditionSummary: source organism: Dengue virus 2 Jamaica/1409/1983
List of Kd values.
// return numeric value only (unit: µM, not printed)

// returns reported Kd for input "RPGYHTQTAG"
0.0021

Queued: "TPPGSRDPF"
9.88

###

# studyTarget: HLA-A*02:01
# assayProtocol: IEDB peptide-MHC binding, purified MHC/competitive/radioactivity; bounds were set here for any values at or beyond the usual limits of such assays
# conditionSummary: source organism: Homo sapiens
measurementType: IC50 (nM)
// return numeric value only (unit: nM, not printed)

// returns reported IC50 for input "KMDSFLDMQL"
11.4

###

# studyTarget: HLA-B*57:01
# assayProtocol: IEDB peptide-MHC binding, purified MHC/competitive/fluorescence; filed as Kd, often an IC50 or EC50 that approximates it; bounds were set here for any values at or beyond the usual limits of such assays
# conditionSummary: source organism: Reston ebolavirus
pKd: −log10 of the molar value.
measurementType: pKd

// returns reported pKd for input "TTDDSTSYY"
≤ 4.70

###

# studyTarget: HLA-B*15:01
# assayProtocol: IEDB peptide-MHC binding, purified MHC/competitive/radioactivity; filed as Kd, often an IC50 or EC50 that approximates it; bounds were set here for any values at or beyond the usual limits of such assays
# conditionSummary: source organism: Dengue virus 4 Philippines/H241/1956
measurementType: pKd
Lab note: report pKd as minus log10 of the concentration in molar units, number only.

{"columns": ["residueSequence", "pKd"],
 "data": [
  ["YKVASAGISY", 8.53]
]}

// returns reported pKd for input "CLIPTAMAF"
8.03

Queued: "RIKGMSYTM"
7.49

Queued: "VLMMLVAPSY"
8.00

###

# studyTarget: HLA-A*03:01
# assayProtocol: IEDB peptide-MHC binding, purified MHC/direct/fluorescence; filed as Kd, often an IC50 or EC50 that approximates it; bounds were set here for any values at or beyond the usual limits of such assays
# conditionSummary: source organism: Influenza A virus
pKd: −log10 of the molar value.
measurementType: pKd

// returns reported pKd for input "DWSGYSGSF"
≤ 4.70

###

# studyTarget: HLA-B*58:01
# assayProtocol: IEDB peptide-MHC binding, purified MHC/direct/fluorescence; filed as Kd, often an IC50 or EC50 that approximates it; bounds were set here for any values at or beyond the usual limits of such assays
# conditionSummary: source organism: Influenza A virus (A/equine/New York/1/1999(H3N8))
measurementType: Kd

Lab note: need Kd with HLA-B*58:01 for entry "RELVRKTRF" , please look it up.
≥ 20 µM

###

# studyTarget: HLA-B*58:01
# assayProtocol: IEDB peptide-MHC binding, purified MHC/direct/fluorescence; filed as Kd, often an IC50 or EC50 that approximates it; bounds were set here for any values at or beyond the usual limits of such assays
# conditionSummary: source organism: Cryptosporidium parvum
pKd: −log10 of the molar value.
measurementType: pKd

// returns reported pKd for input "RKWGLDFCY"
≤ 4.70

###

# studyTarget: HLA-A*26:03
# assayProtocol: IEDB peptide-MHC binding, purified MHC/direct/fluorescence; filed as Kd, often an IC50 or EC50 that approximates it; bounds were set here for any values at or beyond the usual limits of such assays
# conditionSummary: source organism: Giardia lamblia ATCC 50803
measurementType: Kd

// returns reported Kd for input "RENQVAVVR"
≥ 20 µM

###

# studyTarget: HLA-A*03:19
# assayProtocol: IEDB peptide-MHC binding, purified MHC/competitive/fluorescence; filed as Kd, often an IC50 or EC50 that approximates it; bounds were set here for any values at or beyond the usual limits of such assays
# conditionSummary: source organism: Cryptosporidium parvum Iowa II
measurementType: Kd (nM)
// return numeric value only (unit: nM, not printed)

// returns reported Kd for input "RIYKRSLKL"
14.1

###

# studyTarget: HLA-A*24:03
# assayProtocol: IEDB peptide-MHC binding, purified MHC/direct/fluorescence; filed as Kd, often an IC50 or EC50 that approximates it; bounds were set here for any values at or beyond the usual limits of such assays
# conditionSummary: source organism: Limestone Canyon virus
pKd: −log10 of the molar value.
measurementType: pKd

// returns reported pKd for input "KLKSVGKAY"
≤ 4.70

###

# studyTarget: HLA-B*48:01
# assayProtocol: IEDB peptide-MHC binding, purified MHC/direct/fluorescence; filed as Kd, often an IC50 or EC50 that approximates it; bounds were set here for any values at or beyond the usual limits of such assays
# conditionSummary: source organism: Camelpox virus M-96
measurementType: Kd (µM)
// return numeric value only (unit: µM, not printed)

Lab note: need Kd with HLA-B*48:01 for entry "SQIETGTPF" , please look it up.
1.65

###

List of pKd values.
# studyTarget: HLA-B*15:01
# assayProtocol: IEDB peptide-MHC binding, purified MHC/competitive/fluorescence; filed as Kd, often an IC50 or EC50 that approximates it; bounds were set here for any values at or beyond the usual limits of such assays
# conditionSummary: source organism: Bacillus anthracis str. A0488
Lab note: report pKd as minus log10 of the concentration in molar units, number only.

{"columns": ["residueSequence", "pKd"],
 "data": [
  ["QSRKEFMSM", 7.18],
  ["RLMATKNIY", 6.87]
]}

Lab note: need pKd with HLA-B*15:01 for entry "WCMQHLPSY" , please look it up.
6.99

###

# studyTarget: HLA-B*15:17
# assayProtocol: IEDB peptide-MHC binding, purified MHC/competitive/fluorescence; filed as Kd, often an IC50 or EC50 that approximates it; bounds were set here for any values at or beyond the usual limits of such assays
# conditionSummary: source organism: Influenza A virus H3N2
measurementType: pKd
Lab note: report pKd as minus log10 of the concentration in molar units, number only.

Lab note: need pKd with HLA-B*15:17 for entry "MKWMMAMKY" , please look it up.
6.04

###

# studyTarget: HLA-B*39:01
# assayProtocol: IEDB peptide-MHC binding, purified MHC/competitive/fluorescence; filed as Kd, often an IC50 or EC50 that approximates it; bounds were set here for any values at or beyond the usual limits of such assays
# conditionSummary: source organism: Vibrio cholerae MAK 757
measurementType: Kd (nM)
// return numeric value only (unit: nM, not printed)

Lab note: need Kd with HLA-B*39:01 for entry "TMDVYVMIL" , please look it up.
12.3

###

# studyTarget: HLA-B*51:01
# assayProtocol: IEDB peptide-MHC binding, purified MHC/competitive/radioactivity; filed as Kd, often an IC50 or EC50 that approximates it; bounds were set here for any values at or beyond the usual limits of such assays
# conditionSummary: source organism: Vaccinia virus WR
measurementType: pKd
Lab note: report pKd as minus log10 of the concentration in molar units, number only.

{"columns": ["residueSequence", "pKd"],
 "data": [
  ["SPPLISILMI", 5.94],
  ["SPPIPMSRL", 6.04]
]}

Consider the record given below.
// returns reported pKd for input "DPTFQLLNM"
5.47

###

# studyTarget: HLA-A*02:19
# assayProtocol: IEDB peptide-MHC binding, purified MHC/direct/fluorescence; filed as Kd, often an IC50 or EC50 that approximates it; bounds were set here for any values at or beyond the usual limits of such assays
# conditionSummary: source organism: Zaire ebolavirus
measurementType: Kd

// returns reported Kd for input "ILNRKAIDF"
≥ 20 µM

Queued: "LESLTDREL"
≥ 20 µM

###

# studyTarget: HLA-A*68:01
# assayProtocol: IEDB peptide-MHC binding, purified MHC/competitive/radioactivity; filed as Kd, often an IC50 or EC50 that approximates it; bounds were set here for any values at or beyond the usual limits of such assays
# conditionSummary: source organism: Vaccinia virus Copenhagen
measurementType: Kd

// returns reported Kd for input "NTFVNFNSVK"
39.8 nM
